Parameter: pKd. Scope: all listed entries.
Target: T1, FGFR3-IIIc (human, UniProt P22607 23-375, limits assumed)
T1 construct: also called human FGFR3-IIIc
T1 sequence: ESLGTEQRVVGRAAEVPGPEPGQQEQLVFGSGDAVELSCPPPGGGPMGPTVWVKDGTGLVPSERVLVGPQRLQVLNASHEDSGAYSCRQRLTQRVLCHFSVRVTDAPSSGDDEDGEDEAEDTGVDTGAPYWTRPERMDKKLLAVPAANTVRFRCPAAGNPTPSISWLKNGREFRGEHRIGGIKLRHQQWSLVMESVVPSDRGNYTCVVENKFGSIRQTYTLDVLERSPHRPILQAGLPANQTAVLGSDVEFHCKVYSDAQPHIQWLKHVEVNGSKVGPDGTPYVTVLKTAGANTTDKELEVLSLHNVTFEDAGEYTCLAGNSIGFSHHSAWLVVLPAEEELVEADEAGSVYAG
Assay: SPR (Biacore T100), IgG captured by anti-human Fc, FGFR flowed
pKd: −log10 of the molar value.
readoutName: pKd

>>> resultnumber("2B.1.3 (antibody, human IgG1, kappa, V domains shown, Full IgG1/kappa chains; also called Mab 2B.1.3) VH: EVQLVESGGGLVQPGGSLRLSCAASGFTFTSTGISWVRQAPGKGLEWVGRTHLGDGSTNYADSVKGRFTISADTSKNTAYLQMNSLRAEDTAVYYCARTYGIYDLYVDYTEYVMDYWGQGTLVTVSS VL: DIQMTQSPSSLSASVGDRVTITCRASQDVDTSLAWYKQKPGKAPKLLIYSASFLYSGVPSRFSGSGSGTDFTLTISSLQPEDFATYYCQQSTGHPQTFGQGTKVEIKR")
10.15
>>> resultnumber("R3Mab (antibody, human IgG1, kappa, V domains shown, IgG in SPR; also called parental anti-FGFR3 antibody) VH: EVQLVESGGGLVQPGGSLRLSCAASGFTFTSTGISWVRQAPGKGLEWVGRIYPTNGSTNYADSVKGRFTISADTSKNTAYLQMNSLRAEDTAVYYCARTYGIYDLYVDYTEYVMDYWGQGTLVTVSS VL: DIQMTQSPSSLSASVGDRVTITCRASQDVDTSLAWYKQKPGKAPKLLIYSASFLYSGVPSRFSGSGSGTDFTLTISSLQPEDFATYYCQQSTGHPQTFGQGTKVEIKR")
9.21
>>> resultnumber("2B.1.3.10 (antibody, human IgG1, kappa, V domains shown, Full IgG1/kappa chains; also called Mab 2B.1.3.10) VH: EVQLVESGGGLVQPGGSLRLSCAASGFPFTSQGISWVRQAPGKGLEWVGRTHLGDGSTNYADSVKGRFTISADTSKNTAYLQMNSLRAEDTAVYYCARTYGIYDTYDKYTEYVMDYWGQGTLVTVSS VL: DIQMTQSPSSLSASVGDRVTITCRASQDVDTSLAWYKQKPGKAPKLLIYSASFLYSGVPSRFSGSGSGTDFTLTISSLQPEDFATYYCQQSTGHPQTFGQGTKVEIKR")
9.60
>>> resultnumber("2B.1.3.12 (antibody, human IgG1, kappa, V domains shown, Full IgG1/kappa chains; also called Mab 2B.1.3.12) VH: EVQLVESGGGLVQPGGSLRLSCAASGFPFTSTGISWVRQAPGKGLEWVGRTHLGDGSTNYADSVKGRFTISADTSKNTAYLQMNSLRAEDTAVYYCARTYGIYDTYDMYTEYVMDYWGQGTLVTVSS VL: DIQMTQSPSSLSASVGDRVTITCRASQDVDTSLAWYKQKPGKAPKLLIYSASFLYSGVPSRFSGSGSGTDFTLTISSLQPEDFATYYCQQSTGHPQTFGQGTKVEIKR")
9.14
